Entry source: PubChem BioAssay

Biological target: Calcium-dependent protein kinase 4 (Plasmodium falciparum (isolate 3D7)) (UniProt Q8IBS5)
Sequence (Q8IBS5 whole entry, looked up): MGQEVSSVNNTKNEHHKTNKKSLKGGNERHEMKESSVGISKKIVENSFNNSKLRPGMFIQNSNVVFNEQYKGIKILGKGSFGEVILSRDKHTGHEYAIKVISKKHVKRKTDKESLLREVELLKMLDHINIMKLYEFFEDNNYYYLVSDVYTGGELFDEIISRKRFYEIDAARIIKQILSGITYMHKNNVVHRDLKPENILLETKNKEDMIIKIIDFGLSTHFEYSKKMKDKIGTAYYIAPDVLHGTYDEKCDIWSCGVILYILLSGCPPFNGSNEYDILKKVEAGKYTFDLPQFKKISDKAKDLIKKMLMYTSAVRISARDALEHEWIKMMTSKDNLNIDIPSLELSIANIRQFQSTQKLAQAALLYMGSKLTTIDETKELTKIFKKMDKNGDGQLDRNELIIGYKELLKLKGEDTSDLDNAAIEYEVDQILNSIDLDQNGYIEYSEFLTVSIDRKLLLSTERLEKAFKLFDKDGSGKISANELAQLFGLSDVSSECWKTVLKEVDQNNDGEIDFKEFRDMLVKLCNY
Test: PfCDPK4 kinase inhibitors, biochemical, TCAMS library (AID 1159588)
Settings: recombinant PfCDPK4, Kinase-Glo ATP depletion luminescence
Entries with a potency or affinity are not part of this list. Active and inactive are the calls of the source. The limit is not given here; nearly all actives have IC50 up to about 0.91 µM.
QUANTITY KIND: outcome

Some compounds with recorded outcome:
| COMPOUND | outcome |
| --- | --- |
| CCOc1cc(C(=O)NC2CCN(Cc3ccccc3)CC2)ccc1-c1nc2cc(Cl)c(F)cc2[nH]1 | inactive |
| CC(=O)Nc1ccc(C(=O)Nc2ccc(-c3cccc(-c4nc5ccc(F)cc5[nH]4)c3)cc2)cn1 | inactive |
| O=C(Nc1ccc2c(c1)CCC2)c1cccc(CN2CCCN(Cc3cccc(O)c3)CC2)c1 | inactive |
| COc1ccc2nccc(N3CCC(CCNCc4cc5c(cn4)OCCO5)CC3)c2n1 | inactive |
| Nc1ncc(-c2cccc(OCc3ccccc3)c2)cc1-c1nnc2ccc(Cl)nn12 | inactive |

Below are 4 compounds. Give each one its outcome.
1. COc1ccc(CN2CCC(NCc3cccc(C(F)(F)F)c3)CC2)cc1
2. COc1ccc(NC(=O)/C=C/c2ccccc2Cl)cc1OCCN1CCC(N2CCN(C)CC2)CC1
3. COc1ccc(CNC2Cc3ccccc3C2)cc1-c1cccc(S(=O)(=O)NCCN2CCCC2)c1
4. Cc1nc(NCCCn2ccnc2)cc(-c2cncc(-c3ccc(OC(F)(F)F)cc3)c2)n1

1. inactive
2. inactive
3. inactive
4. inactive

###

Experiment: inhibition of 3D7 malaria parasite growth – strain 3D7 (AID 2306);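 also: 0% = DMSO wells and 100% = chloroquine plus artemisinin control wells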
Conditions: P. falciparum 3D7 erythrocytic growth, LDH absorbance, 72 h; at 2 µM; active compounds read high
QUANTITY KIND: growth inhibition (%)
Answers are plain numbers, in %.

Sample records with growth inhibition:
| MOLECULE | UNIT LABEL | RECORDED VALUE |
| --- | --- | --- |
| NC(=O)c1ccc(-c2ccc3ccnc(N)c3c2)cc1 | % | 101 |
| Cc1ccc2[nH]c3c(NCCN(C)C)ncnc3c2c1 | % | 99 |

Working through the 2 molecules below one at a time, give growth inhibition for each.
1. COC(=O)c1c(NC(=O)c2cccc(C(F)(F)F)c2)sc2c1CCN(Cc1ccccc1)C2
2. COc1cc(NC(=O)c2sc(-c3ccc(Cl)cc3)cc2NC(=O)c2ccncc2)ccc1OCCN1CCCC1

[84, 100]

Below are 2 molecules. Give each one its growth inhibition.
1. C=CCOC(=O)N1CCC(CNCc2ccc(-c3ccc(-c4nc5ccccc5[nH]4)s3)cc2)C1 (centres undefined)
2. O=C(Nc1cccc(-c2cccc(-c3nc4ccc(C(F)(F)F)cc4[nH]3)c2)c1)Nc1ccc(F)c(F)c1F

1: 101; 2: 99

Please state growth inhibition for every molecule in the list that follows.
1. COc1ccc(-c2ccc(CNCc3ccc(F)cc3)cc2)cc1S(=O)(=O)NCCN1CCCC1
2. CC(=O)Nc1nc(C(=O)Nc2ccc(-c3ccc(-c4nc5c(C)cccc5[nH]4)cc3)cc2)cs1
3. CCCc1ccc(NC(=O)c2cccc(CN3CCCN(Cc4cccc(O)c4)CC3)c2)cc1

1: 98; 2: 101; 3: 97

###

Assay: antimalarial activity against Dd2 strain (AID 2302);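 also: 0% = DMSO untreated growth and 100% = chloroquine plus artemisinin killed control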
Conditions: P. falciparum Dd2 in RBCs, LDH growth readout, 72 h; at 2 µM; active compounds read high
QUANTITY KIND: growth inhibition (%)
Answers are plain numbers, in %.

Observe how each entry below is paired with its result.
| COMPOUND | QUANTITY KIND | RECORDED VALUE |
| --- | --- | --- |
| CC(C)Nc1nc(NCCc2cnc[nH]2)nc(NCc2ccc(Cl)c(Cl)c2)n1 | growth inhibition | -1 |
| CC(C)(C)CNc1noc(-c2sccc2Br)n1 | growth inhibition | 71 |
| CCCCOC(=O)C1=C(C)NC2=C(C(=O)CC(c3ccc(OC)c(OC)c3)C2)C1c1ccc(O)cc1 (stereo not drawn) | growth inhibition | 75 |

# per-item lookup of growth inhibition; items listed below
1. CC(C)COc1ccc(Cl)cc1Cc1ccc(-c2nc3ccc(CCN4CCCC4)cc3[nH]2)o1
2. CS(=O)(=O)c1ccc(CCNCc2ccc(-c3ccc(CN(C(=O)C4CC(=O)c5ccccc54)C4CCN(Cc5ccccc5)CC4)cc3)nc2)cc1 (stereo not drawn)
3. COc1cc(Cc2cnc(N)nc2N)cc(OCc2cccc(C(=O)O)c2)c1OC

1: 94; 2: 49; 3: -3

Provide reported growth inhibition for each item, in the same order as listed.
1. CN(C)Cc1cccc(-c2cnc(N)c(-c3nc4ccc(S(C)(=O)=O)cc4[nH]3)c2)c1
2. Cc1c(Cc2ccc(F)cc2)c(Cl)nc2nc(N)nc(N)c12
3. CN(Cc1ccccc1)C(=O)c1nn(CCCN2CCC(N3CCCC3)CC2)cc1-c1ccc(Cl)c(Cl)c1

1: 61; 2: 1; 3: 66

For every record below, what is its growth inhibition?
1. CCCCC(CC)C(=O)C(NC(=O)[C@H](CSC(c1ccccc1)(c1ccccc1)c1ccccc1)NC(=O)OC(C)(C)C)C(=O)OC (stereo partly drawn)
2. Cc1cccc(C)c1CNc1nc(N2CCOCC2)cc2c(C)c(C)[nH]c12
3. COc1ccc(-c2cc3ncnc(N4CCN(CCN5CCCC5)CC4)c3s2)cc1
4. Cc1cc(C(=O)N[C@H]2CCN(Cc3ccc(OCCCN(C)C)cc3)C2)ccc1Br
5. CCN1CCN(Cc2ccc(-c3ccc(NS(=O)(=O)c4cccc5cccnc45)cc3)cc2)CC1

1: 31; 2: 64; 3: 90; 4: 62; 5: 42

Hi! Can you tell me growth inhibition for each of these compounds?
1. Cc1cccc2[nH]c(-c3cccc(-c4ccc(NC(=O)C5CC(=O)Nc6ccccc65)cc4)c3)nc12 (stereo not drawn)
2. COc1ccc2ncc(F)c(CCN3CCC(NCc4cc5c(cn4)OCCS5)CC3)c2c1
3. O=C(/C=C/c1ccc(Cl)c(Cl)c1)NC1CCN(Cc2cccc(O)c2)CC1
4. CCOC(=O)N1CCC(NC(=O)c2ccc(C(C)(C)C)cc2OC)CC1

[56, 40, -1, -5]

Lab note: each compound below needs its growth inhibition filled in.
1. CC(=O)c1c[nH]c(C(=O)Nc2ccc(-c3cn4ccccc4n3)cc2)c1
2. FC(F)(F)c1cccc(Nc2nc(-c3ccccc3)nc3ncccc23)c1
3. COc1ccc2[nH]cc(C3CCN(CCC4CCN(C(=O)/C=C/c5ccc(Cl)c(Cl)c5)CC4)CC3)c2c1
4. CCCCc1cc(NCc2ccncc2)nc(Nc2ccccc2)n1
5. COc1ccc2nccc([C@@H](O)CN3CC[C@H](NCc4ccc5c(n4)NC(=O)CS5)[C@H](F)C3)c2c1
6. O=C(Nc1ccc(O)c(-c2nc3ccccc3[nH]2)c1)c1ccc([N+](=O)[O-])cc1
7. Cc1cc(N)c2cc(NC(=O)/C=C/c3ccccc3Cl)ccc2n1

95
97
56
4
88
45
98

Look up growth inhibition for the entries below, preserving their order.
1. CC(C)N1CCN(c2ccc(OCCCN3CCN(c4cccc(Cl)c4Cl)CC3)c(C(F)(F)F)c2)CC1
2. O=C(Nc1nc2cc(S(=O)(=O)NCc3ccc(Cl)c(Cl)c3)ccc2n1CCCN1CCCC1)c1ccc(Cl)cc1
3. OCCOCCNCc1cccc(C#Cc2cc3ncnc(Nc4ccc(OCc5cccc(F)c5)c(Cl)c4)c3s2)n1

1. 37
2. 16
3. 46

Go through the list and state growth inhibition for each entry.
1. CN1CCN(CC(=O)Nc2ccc(-c3ccc(-c4nc5ccccc5[nH]4)s3)cc2)CC1
2. Cc1cc(N)nc2ccc(-c3ccc(CCN)cc3)cc12
3. O=C(Nc1ccc(C(F)(F)F)cc1)NC1CCN(c2ccnc3cc(Cl)ccc23)C1 (stereo not drawn)

1: 49; 2: 48; 3: 99

Hey, can you go through the list below and give me growth inhibition for every item?
1. COc1cc(Nc2ncc3c(C)nc(-c4cccc(Nc5ccc(CN6CCS(=O)(=O)CC6)cc5)c4)n3n2)cc(OC)c1OC
2. CC1SC(=S)NC1C(=O)O (stereo not drawn)
3. COc1ccc(-c2ccc(Nc3cccc(S(=O)(=O)CCN4CCC(CCN(C)C)CC4)c3)nc2)cn1
4. CCc1ccc(NC(=O)c2ccc(CN3CCCN(Cc4cccc(Cl)c4)CC3)cc2)cc1
5. CCOc1cc(C(=O)NC2CCN(Cc3ccccc3)C2)ccc1-c1nc2ccc(Cl)cc2[nH]1 (stereo not drawn)

1: 79; 2: -1; 3: 9; 4: 2; 5: 60

I'm hoping you can list growth inhibition for every compound here, please.
1. COc1ccc(-c2cncc3ccc(C(=O)NCCCn4ccnc4)nc23)cc1
2. CNc1ccc(CNCc2ccc(-c3ccc(-c4nc5ccc(C(F)(F)F)cc5[nH]4)s3)cc2)cc1

99
97
